Biological target: EP2 (Homo sapiens (Human));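 further: antagonism of PGE2-stimulated cAMP accumulation in SF295 human glioblastoma cells with endogenous EP2, cAMP read by HTRF, expressed relative to DMSO control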
pIC50: −log10 of the molar value.

chemicalSmiles	pIC50
CCCc1cc(-c2cc(NCCn3c(C)cc4cc(OC)cc(F)c43)ncn2)cc(F)c1C(=O)O	6.49
CCCc1cc(-c2cc(NCCn3c(C)cc4cc(C)cc(F)c43)ncn2)cc(F)c1C(=O)O	7.55
CCSc1cc(-c2cc(NCCn3c(C)cc4c(OC)c(F)cc(Cl)c43)ncn2)ccc1C(=O)O	7.36
CCCOc1cc(-c2cc(NCCn3c(C)cc4c(OC)cc(F)c(F)c43)ncn2)cc(F)c1C(=O)O	7.60
Cc1cc2c(F)c(F)cc(F)c2n1CCNc1cc(-c2ccc(-c3noc(=O)[nH]3)cc2)ncn1	7.92
Cc1nc(NCCn2c(C)cc3c(C)cc(F)cc32)cc(-c2cc(C(F)(F)F)c(C(=O)O)s2)n1	7.36
COc1cccc2c1cc(C)n2CCNc1cc(-c2ccc(C(=O)O)c(OCC(C)C)c2)ncn1	8.52
Cc1cc(F)cc2c1cc(C)n2CCNc1cc(-c2ccc(C(=O)O)c(OCC(C)C)c2)ncn1	8.00
COc1cc(F)cc2c1cc(C)n2CCNc1cc(-c2ccc(C(=O)O)c(CC(C)C)c2)nc(C)n1	7.35
CCCc1cc(-c2cc(NCCn3c(C)cc4c(OC)ccc(Cl)c43)ncn2)cc(Cl)c1C(=O)O	7.62
CCOc1cc(-c2cc(NCCn3c(C)cc4c(OC)ccc(F)c43)ncn2)ccc1CNC1CCC1	6.76
CCCc1cc(-c2cc(NCCn3c(C)cc4cc(Cl)cc(F)c43)ncn2)cc(F)c1C(=O)O	7.14
CNc1nnc(-c2ccc(-c3cc(NCCn4c(C)cc5c(C)cc(F)cc54)ncn3)cc2)s1	7.89
COc1cc(F)cc2c1cc(C)n2CCNc1cc(-c2ccc(-c3ncc(C)n3C)cc2)ncn1	7.07
CCOc1cc(-c2cc(NCCn3c(C)cc4c(OC)ccc(Cl)c43)ncn2)ccc1-c1nnn[nH]1	8.10
CCNc1cc(-c2cc(NCCn3c(C)cc4c(OC)ccc(F)c43)ncn2)ccc1C(=O)O	9.00

###

The following compounds are shown together with reported pIC50 values.
Molecular target: PTRGER4 (EP4) (Homo sapiens (Human), UniProt P35408)
Sequence (P35408 whole entry, looked up): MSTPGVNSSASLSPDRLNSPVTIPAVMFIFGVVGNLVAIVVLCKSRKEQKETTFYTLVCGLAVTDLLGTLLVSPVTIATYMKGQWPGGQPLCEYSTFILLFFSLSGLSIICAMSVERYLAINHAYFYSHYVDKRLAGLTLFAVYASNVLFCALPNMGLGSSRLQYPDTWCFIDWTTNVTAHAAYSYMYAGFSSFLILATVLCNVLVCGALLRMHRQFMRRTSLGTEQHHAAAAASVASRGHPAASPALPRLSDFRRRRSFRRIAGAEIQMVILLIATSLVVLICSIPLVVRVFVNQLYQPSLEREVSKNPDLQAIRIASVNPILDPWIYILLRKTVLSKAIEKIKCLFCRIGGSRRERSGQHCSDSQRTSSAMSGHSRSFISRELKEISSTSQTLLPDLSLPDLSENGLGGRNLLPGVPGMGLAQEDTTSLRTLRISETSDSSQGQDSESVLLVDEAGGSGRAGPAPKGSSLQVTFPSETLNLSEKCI
Experiment: hEP4 b-arrestin assay (PathHunter HEK 293 PTGER4 b-arrestin cells)
Assay type: cell-based
Conditions: hEP4 b-arrestin assay (values without asterisk)
pIC50: −log10 of the molar value.

compound	pIC50
CCOc1cc(-c2cc(NCCn3c(C)cc4c(F)ccc(C)c43)ncn2)ccc1C(=O)O [Example 812]	6.01
CCOc1cc(-c2cc(NCCn3c(C#N)cc4c(OC)ccc(F)c43)ncn2)sc1C(=O)NS(=O)(=O)CC [Example 817]	8.30
COc1cc(-c2cc(NCCn3c(C#N)cc4c(OC)ccc(F)c43)ncn2)ccc1-c1cc(O)no1 [Example 855]	8.52
CCOc1cc(-c2cc(NCCn3c(C#N)cc4c(OC)ccc(F)c43)ncn2)ccc1C=O [Example 992]	7.46
CCCc1cc(-c2cc(NCCn3c(C#N)cc4c(OC)ccc(F)c43)ncn2)ccc1C(=O)O [Example 947]	7.80
COc1ccc(F)c2c1cc(C#N)n2CCNc1cc(-c2ccc3[nH]ccc3c2)ncn1 [Example 994]	8.22
CNc1cc(-c2cc(NCCn3c(C#N)cc4c(OC)cccc43)ncn2)ccc1C(=O)O [Example 958]	7.74
COc1ccc(F)c2c1cc(C)n2CCNc1cc(-c2nc(C(C)(C)C)c(C(=O)O)s2)ncn1 [Example 1038]	7.70
CCCCOc1cc(-c2cc(NCCn3c(C#N)cc4c(OC)ccc(F)c43)ncn2)cc(Cl)c1C(=O)O [Example 906]	8.52
CCOc1cc(-c2cc(NCCn3c(C#N)cc4c(OC)ccc(F)c43)ncn2)ccc1OCC(=O)O [Example 808]	8.40
COc1ccc(F)c2c1cc(C)n2CCNc1cc(-c2cc(-c3ccccn3)c(C(=O)O)s2)ncn1 [Example 1066]	7.32
COc1cc(F)cc2c1cc(C)n2CCNc1cc(-c2ccc(C(=O)O)c(OCC(F)(F)F)c2)ncn1 [Example 845]	6.67
CCN(C=O)c1csc(-c2cc(NCCn3c(C)cc4c(OC)ccc(F)c43)ncn2)c1 [Example 1071]	7.40
COc1ccc(F)c2c1cc(C#N)n2CCNc1cc(-c2ccnc(N3CCCC3)c2)ncn1 [Example 997]	6.84
CCOc1cc(-c2cc(NCCn3c(C)cc4c(Cl)c(F)cc(Cl)c43)ncn2)sc1C(=O)O [Example 883]	7.20
COc1ccc(F)c2c1cc(C#N)n2CCNc1cc(-c2ccc3c(c2)N(C)C(=O)NC3)ncn1 [Example 919]	8.52

###

Molecular target: PTGER2 (EP2) (Homo sapiens (Human), UniProt P43116)
Sequence (P43116 whole entry): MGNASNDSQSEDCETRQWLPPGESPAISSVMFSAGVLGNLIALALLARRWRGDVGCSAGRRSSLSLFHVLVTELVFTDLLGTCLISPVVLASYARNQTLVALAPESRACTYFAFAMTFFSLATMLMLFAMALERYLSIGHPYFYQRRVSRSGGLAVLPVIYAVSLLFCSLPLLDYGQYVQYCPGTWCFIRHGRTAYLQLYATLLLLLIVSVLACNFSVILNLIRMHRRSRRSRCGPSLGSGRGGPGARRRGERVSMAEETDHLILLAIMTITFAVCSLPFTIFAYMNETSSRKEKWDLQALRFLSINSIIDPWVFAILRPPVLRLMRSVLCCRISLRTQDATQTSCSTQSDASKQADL
Experiment: hEP2 b-arrestin assay (PathHunter HEK 293 PTGER2 b-arrestin cells)
Type: cell-based
Details: antagonistic activity on hEP2; mean where measured multiple times
pIC50: −log10 of the molar value.

molecule	pIC50
COc1ccc(Cl)c2c1cc(C)n2CCNc1cc(-c2cc(Cl)c(C(=O)O)c(Cl)c2)ncn1 [compound 292]	7.28
CCc1cc(-c2cc(NCCn3c(C)cc4cc(Cl)cc(F)c43)ncn2)sc1C(=O)O [compound 242]	6.95
Cc1cc(F)cc2c1cc(C)n2CCNc1cc(-c2cc(Cl)c(C(=O)O)c(Cl)c2)ncn1 [compound 390]	7.42
Cc1ccc(F)c2c1cc(C)n2CCNc1cc(-c2ccc(C(=O)O)c(Cl)c2)ncn1 [compound 29]	7.74
COc1cccc2c1cc(C)n2CCNc1cc(-c2ccc(-c3nnc[nH]3)cc2)ncn1 [compound 100]	7.96
Cc1ccc(F)c2c1cc(C)n2CCNc1cc(-c2ccc(N)cc2)ncn1 [compound 1]	7.30
CCc1cc(-c2cc(NCCn3c(C)cc4c(C)ccc(F)c43)ncn2)ccc1C(=O)O [compound 220]	7.74
COc1cccc2c1cc(C)n2CCNc1cc(-c2ccc(-c3ncc[nH]3)cc2)ncn1 [compound 76]	7.68

###

Biological target: PTGER2 (EP2) (Homo sapiens (Human))
Experiment: hEP2 b-arrestin assay (PathHunter HEK 293 PTGER2 b-arrestin cells)
Type: cell-based
Settings: antagonistic activity on hEP2; mean where measured multiple times
pIC50: −log10 of the molar value.
Each entry gets 0.0 if its pIC50 stays under 8, and 1.0 if its pIC50 is 8 or above.

compound	className
CCOc1cc(-c2cc(NCCn3c(C)cc4c(OC)ccc(F)c43)ncn2)ccc1CNC [compound 358]	0.0
Cc1cc2ccccc2n1CCNc1cc(-c2ccc3ccncc3c2)ncn1 [compound 133]	0.0
COc1cccc2c1cc(C)n2CCNc1cc(-c2ccc(-c3nc(N)sc3C)cc2)ncn1 [compound 311]	1.0
COc1ccc(F)c2c1cc(C)n2CCNc1cc(-c2ccc(-c3noc(C)n3)cc2)ncn1 [compound 303]	0.0
Cc1cc2c(Cl)ccc(Cl)c2n1CCNc1cc(-c2ccc3[nH]c(C(=O)O)cc3c2)ncn1 [compound 198]	0.0
CCCc1cc(-c2cc(NCCn3c(C)cc4c(F)ccc(Cl)c43)ncn2)ccc1C(=O)O [compound 143]	1.0
COc1ccc(F)c2c1cc(C)n2CCNc1cc(-c2cnc(N3CCOCC3)s2)ncn1 [compound 181]	0.0

###

Molecular target: PTGER2 (EP2) (Homo sapiens (Human), UniProt P43116)
Experiment: hEP2 b-arrestin assay (PathHunter HEK 293 PTGER2 b-arrestin cells)
Format: cell-based
Settings: antagonistic activity on hEP2; mean where measured multiple times
Entries and their log10 of IC50
measurementType: log10 of IC50 (log10 of the value in nM)

chemicalSmiles	log10 of IC50
CCOc1cc(-c2cc(NCCn3c(C)cc4c(F)c(F)ccc43)ncn2)ccc1C(=O)O	0.95
COc1cc(-c2cc(NCCn3c(C)cc4c(C)ccc(F)c43)ncn2)ccc1CO	1.53
Cc1cc(F)c(F)c2c1cc(C)n2CCNc1cc(-c2ccc3c(c2)CC(=O)N3)ncn1	2.26
COc1ccc(F)c2c1cc(C)n2CCNc1cc(-c2ccc(-n3cccn3)cc2)ncn1	1.72
Cc1ccc2c(c1)cc(C)n2CCNc1cc(-c2ccc(C(=O)O)c(CC(C)C)c2)ncn1	1.54
Cc1cc2c(F)ccc(F)c2n1CCNc1cc(-c2ccc(C(=O)O)c(C3CC3)c2)ncn1	0.70
CCc1cc(-c2cc(NCCn3c(C)cc4c(OC)ccc(F)c43)ncn2)ccc1C(=O)O	1.45
CCOc1cc(-c2cc(NCCn3c(C)cc4c(OC)ccc(F)c43)ncn2)ccc1S(N)(=O)=O	1.71

###

Reported IC50 values follow for various compounds
Target: UniProt:P35408
Test: hEP4 b-arrestin assay (PathHunter HEK 293 PTGER4 b-arrestin cells)
Type: cell-based
Details: antagonistic activity on hEP4; mean where measured multiple times

compound	target	IC50
CNc1nnc(-c2ccc(-c3cc(NCCn4c(C)cc5c(C)ccc(F)c54)ncn3)cc2)s1	UniProt:P35408	23 nM
CNc1cc(-c2cc(NCCn3c(C)cc4c(OC)ccc(Cl)c43)ncn2)ccc1C(=O)O	UniProt:P35408	103 nM
CCOc1cc(-c2cc(NCCn3c(C)cc4c(Cl)ccc(F)c43)ncn2)ccc1C(=O)O	UniProt:P35408	435 nM
COc1ccc(F)c2c1cc(C)n2CCNc1cc(-c2ccc(-c3ncc[nH]3)cc2)ncn1	UniProt:P35408	287 nM
COc1ccc(F)c2c1cc(C)n2CCNc1cc(-c2ccc3[nH]cnc3c2)ncn1	UniProt:P35408	113 nM
CCC1NC(=O)c2ccc(-c3cc(NCCn4c(C)cc5c(OC)ccc(F)c54)ncn3)cc21 (racemic)	UniProt:P35408	296 nM
CCOc1cc(-c2cc(NCCn3c(C)cc4c(OC)ccc(F)c43)ncn2)ccc1CO	UniProt:P35408	75 nM
CCOc1cc(-c2cc(NCCn3c(C)cc4c(C)ccc(Cl)c43)ncn2)ccc1C(=O)O	UniProt:P35408	590 nM
COc1cccc2c1cc(C)n2CCNc1cc(-c2ccc(-c3ccn[nH]3)cc2)ncn1	UniProt:P35408	95 nM
COc1ccc(F)c2c1cc(C)n2CCNc1cc(-c2ccc3c(c2)CC(=O)N3)ncn1	UniProt:P35408	144 nM
CCOc1cc(-c2cc(NCCn3c(C)cc4ccc(OC)cc43)ncn2)ccc1C(=O)O	UniProt:P35408	896 nM
CCCc1cc(-c2cc(NCCn3c(C)cc4c(OC)cccc43)ncn2)ccc1C(=O)O	UniProt:P35408	153 nM
CSc1cc(-c2cc(NCCn3c(C)cc4c(Cl)ccc(Cl)c43)ncn2)cc(Cl)c1C(=O)O	UniProt:P35408	588 nM
Cc1ccc(F)c2c1cc(C)n2CCNc1cc(-c2ccc3[nH]cnc3c2)ncn1	UniProt:P35408	520 nM
CSc1cc(-c2cc(NCCn3c(C)cc4c(F)c(F)cc(Cl)c43)ncn2)cc(Cl)c1C(=O)O	UniProt:P35408	989 nM
CCOc1cc(-c2cc(NCCn3c(C)cc4cc(C)cc(F)c43)ncn2)ccc1C(=O)O	UniProt:P35408	691 nM
